Test: ATG_TGFb_CIS: Attagene CIS-FACTORIAL HepG2 Assay for human Transforming Growth Factor (TGF) (AID 2282967)
Conditions: HepG2 Attagene CIS TGFb reporter, mRNA transcription; actives raise or lower the signal
Active and inactive are the calls of the source. How the source made its calls: active means hit-call score of the fitted dose curve at least 0.9, where 1 is the maximum; inactive means score below 0.9.
Please state which outcome applies, choosing from Yes = active, No = inactive

1) CCC(C)(NC(=O)c1cc(Cl)c(C)c(Cl)c1)C(=O)CCl (stereo not given) : No
2) COP(=S)(OC)Oc1ccc([N+](=O)[O-])cc1 : No
3) O=[N+]([O-])/N=C1\NCCN1Cc1ccc(Cl)nc1 : No
4) CN1CSC(=S)N(C)C1 : No
5) CCOC1Oc2ccc(OS(C)(=O)=O)cc2C1(C)C (stereo not given) : No

input: What was the test verdict on `CNC(=O)/C=C(\C)OP(=O)(OC)OC` ?
output: No

input: What was the test verdict on `COC(=O)c1ccccc1CS(=O)(=O)NC(=O)Nc1nc(OC)cc(OC)n1` ?
output: No

input: What was the test verdict on CC1(C)C(C=C(Cl)Cl)C1C(=O)OC(C#N)c1ccc(F)c(Oc2ccccc2)c1 (stereo not given) ?
output: No

input: What was the test verdict on CCC(C)Nc1c([N+](=O)[O-])cc(C(C)(C)C)cc1[N+](=O)[O-] (stereo not given) ?
output: No

input: What was the test verdict on `CCCN(CCC)c1c([N+](=O)[O-])cc(C(F)(F)F)cc1[N+](=O)[O-]` ?
output: No

input: What was the test verdict on `CCCN(CCOc1c(Cl)cc(Cl)cc1Cl)C(=O)n1ccnc1` ?
output: No

input: What was the test verdict on `O=C(O)CCCOc1ccc(Cl)cc1Cl` ?
output: No

input: What was the test verdict on `N#CN` ?
output: No

input: What was the test verdict on O=C(NC(=O)c1c(F)cccc1F)Nc1ccc(OC(F)(F)C(F)OC(F)(F)F)c(Cl)c1 (stereo not given) ?
output: No

###

Read-out: ABC Transporter (ABCB11), ABCB11 (gene 8647)
Assay: CLD_ABCB11_24hr: CellzDirect (CLD) Gene Expression Assay for ABC Transporter (ABCB11) at 24 hours (AID 2283674)
Results filed as inconclusive are left out. Active and inactive are the calls of the source. Rule for the calls: active = hit-call score of the fitted dose curve at least 0.9, where 1 is the maximum; inactive = score below 0.9.
Please state which outcome applies, choosing from active, inactive

Here are 3 molecules together with their reported answers.
1. COC(=O)c1ccccc1S(=O)(=O)NC(=O)Nc1nc(C)nc(OC)n1 : inactive
2. COc1nn(CSP(=S)(OC)OC)c(=O)s1 : inactive
3. COP(=S)(OC)Oc1ccc([N+](=O)[O-])cc1 : inactive

input: What was the test verdict on `O=[N+]([O-])/N=C1\NCCN1Cc1ccc(Cl)nc1` ?
output: inactive

###

Test: Tanguay_ZF_120hpf_PE_legacy: (Legacy) Oregon State University Tanguay Lab 120 Hour Post-fertilization zebrafish Assay for Pericardial Edema (AID 2283640)
Results filed as inconclusive are left out. Active and inactive are the calls of the source. How the source made its calls: active means hit-call score of the fitted dose curve at least 0.9, where 1 is the maximum; inconclusive means response in the unintended direction; inactive means score below 0.9.
Measured Property: outcome

1) C#CCN1C(=O)COc2cc(F)c(N3C(=O)C4=C(CCCC4)C3=O)cc21 : inactive
2) Oc1ccc(Cl)cc1Cc1ccccc1 : inactive
3) COc1nn(CSP(=S)(OC)OC)c(=O)s1 : inactive

###

Read-out: Insulin Like Growth Factor 1 (IGF1), IGF1 (gene 3479)
Experiment: LTEA_HepaRG_IGF1: Life Technologies and Expression Analysis (LTEA) Assay for Insulin Like Growth Factor 1 (IGF1) using HepaRG (AID 2283506)
Details: mRNA level, 48 h; actives raise or lower the signal
Active and inactive are the calls of the source. How the source made its calls: active means hit-call score of the fitted dose curve at least 0.9, where 1 is the maximum; inactive means score below 0.9.
Please state which outcome applies, choosing from T for active, F for inactive

Here are 3 compounds together with their reported answers.
1) CCOC1Oc2ccc(OS(C)(=O)=O)cc2C1(C)C (stereo unspecified) : T
2) CCC(C)(NC(=O)c1cc(Cl)c(C)c(Cl)c1)C(=O)CCl (stereo unspecified) : F
3) CC(C)(C)C(O)/C(=C\c1ccc(Cl)cc1Cl)n1cncn1 (stereo unspecified) : T

input: What was the test verdict on `CC(C)N(C(=O)COc1nnc(C(F)(F)F)s1)c1ccc(F)cc1` ?
output: F

input: What was the test verdict on `COP(=O)(OC)OC=C(Cl)Cl` ?
output: F

input: What was the test verdict on `O=C(O)COc1ccc(Cl)cc1Cl` ?
output: F
